The reader will find reported IC50 values listed item by item below.
Biological target: USP5 (Homo sapiens)
Sequence (P45974 1-858): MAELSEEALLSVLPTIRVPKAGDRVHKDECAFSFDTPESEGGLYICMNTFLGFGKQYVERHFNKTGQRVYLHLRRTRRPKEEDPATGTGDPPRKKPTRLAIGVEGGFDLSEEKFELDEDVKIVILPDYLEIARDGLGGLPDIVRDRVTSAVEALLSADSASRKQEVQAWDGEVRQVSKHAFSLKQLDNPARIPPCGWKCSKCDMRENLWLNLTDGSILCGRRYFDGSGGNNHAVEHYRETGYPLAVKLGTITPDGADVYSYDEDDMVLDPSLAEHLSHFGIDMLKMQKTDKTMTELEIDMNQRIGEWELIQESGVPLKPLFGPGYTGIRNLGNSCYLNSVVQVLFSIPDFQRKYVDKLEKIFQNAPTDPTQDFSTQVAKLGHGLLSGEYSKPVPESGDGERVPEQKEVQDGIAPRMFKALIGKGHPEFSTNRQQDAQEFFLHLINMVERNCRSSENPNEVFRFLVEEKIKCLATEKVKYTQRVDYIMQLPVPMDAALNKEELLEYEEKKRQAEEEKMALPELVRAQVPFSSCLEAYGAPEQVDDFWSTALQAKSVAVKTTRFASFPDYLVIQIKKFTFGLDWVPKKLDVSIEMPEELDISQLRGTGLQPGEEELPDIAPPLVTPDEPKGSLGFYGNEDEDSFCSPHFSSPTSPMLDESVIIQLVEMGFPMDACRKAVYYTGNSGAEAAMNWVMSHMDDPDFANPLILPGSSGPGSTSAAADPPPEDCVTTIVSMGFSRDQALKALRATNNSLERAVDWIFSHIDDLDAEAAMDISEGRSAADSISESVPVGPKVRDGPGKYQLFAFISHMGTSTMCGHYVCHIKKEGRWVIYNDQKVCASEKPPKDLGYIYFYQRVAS

In the examples that follow, each entry is paired with its recorded IC50.
- compound-structure: "CCCN1CCN(CCCNC(=O)c2ccc3c(Cl)c4c(nc3c2)CCCC4)CC1"
  endpoint-label: "IC50"
  data-value: "> 200 µM"
- compound-structure: "CCN(CC)CCNC(=O)c1ccc2c(Cl)c3c(nc2c1)CCCC3"
  endpoint-label: "IC50"
  data-value: "> 200 µM"
- compound-structure: "O=C(c1ccc2c(Cl)c3c(nc2c1)CCCC3)N1CCCCCC1"
  endpoint-label: "IC50"
  data-value: "> 200 µM"

Recorded IC50 for `CCCCN(CC)CCNC(=O)c1ccc2c(Cl)c3c(nc2c1)CCCC3` with USP5 (Homo sapiens), please? > 200 µM

What is its IC50 for USP5 (Homo sapiens)? Entry: `CCN(CCCNC(=O)c1ccc2c(Cl)c3c(nc2c1)CCCC3)Cc1ccccc1` > 200 µM

# value lookup — system USP5 (Homo sapiens), readout IC50, item `O=C(c1ccc2c(Cl)c3c(nc2c1)CCCC3)N1CCC(N2CCCCC2)CC1` > 200 µM

* * *

system: HCT116 colon cancer cells; assay: HCT116 cell viability and proliferation assay (MTS); format: cell-based; conditions: Homo sapiens, HCT-116, HCT116, 72 hours, read-out: Cell viability (MTS): HCT116 Gl50 Day 3
pIC50: −log10 of the molar value.
endpoint-label: pIC50

Worked set:
- compound: "CCN1CCCC1CNC(=O)c1ccc2c(Cl)c3c(nc2c1)CCCC3 (stereo not shown)"
  data-value: 5.30
- compound: "CN(CCCNC(=O)c1ccc2c(Cl)c3c(nc2c1)CCCC3)Cc1ccccc1"
  data-value: 5.39
- compound: "Cc1cccc(CN2CCC(CNC(=O)c3ccc4c(Cl)c5c(nc4c3)CCCC5)CC2)c1"
  data-value: 5.70
- compound: "CCN(CC)CCNC(=O)c1ccc2c(Cl)c3c(nc2c1)CCCC3"
  data-value: 5.37

[I] O=C(NCCCN1CCCC1)c1ccc2c(Cl)c3c(nc2c1)CCCC3
[II] CC1CCCC(C)N1CCCNC(=O)c1ccc2c(Cl)c3c(nc2c1)CCCC3 (stereo not shown)
Which value of pIC50 is smaller, the one for I or the one for II ? API: response body contains the label of the selected item. I
